test system: Cyp1b1 mRNA in liver; assay: Cyp1b1 gene expression in liver (real-time PCR); format: in vivo, female C57BL/6 mice; settings: relative to TCDD; dose metric Adm dose (µg/kg BW)
endpoint: REP Liver Cyp1b1 mRNA
Lab note: record the figure alone, no unit after it.

Prompt: Need REP Liver Cyp1b1 mRNA of Clc1ccc(-c2cc(Cl)c(Cl)c(Cl)c2Cl)cc1Cl [PCB-156, 2,3,3´,4,4´,5-hexachlorobiphenyl] , thanks.
Response: 0.00004

Prompt: Need REP Liver Cyp1b1 mRNA of Clc1cc2oc3c(Cl)c(Cl)c(Cl)cc3c2cc1Cl [Congener 4-PeCDF, 2,3,4,7,8-pentachlorodibenzofuran] , thanks.
Response: 0.02

Prompt: Need REP Liver Cyp1b1 mRNA of Clc1cc2c(cc1Cl)Oc1c(cc(Cl)c(Cl)c1Cl)O2 [PeCDD, 1,2,3,7,8-pentachlorodibenzodioxin] , thanks.
Response: 0.4

Prompt: Need REP Liver Cyp1b1 mRNA of Clc1cc2c(cc1Cl)Oc1cc(Cl)c(Cl)cc1O2 [TCDD, 2,3,7,8-tetrachlorodibenzodioxin, reference compound] , thanks.
Response: 1

###

system: Cyp1a2 mRNA in liver; assay: Cyp1a2 gene expression in liver (real-time PCR); format: in vivo, female C57BL/6 mice; settings: dose metric Syst adipose; 3 days after single oral dose
endpoint: BMR20TCDD Liver Cyp1a2 mRNA (ng/g lipid)
Give just the numeric value; ng/g lipid need not be written.

Prompt: Need BMR20TCDD Liver Cyp1a2 mRNA of Clc1cc2c(cc1Cl)Oc1c(cc(Cl)c(Cl)c1Cl)O2 [PeCDD, 1,2,3,7,8-pentachlorodibenzodioxin] , thanks.
Response: 1.20

Prompt: Need BMR20TCDD Liver Cyp1a2 mRNA of Clc1cc2oc3c(Cl)c(Cl)c(Cl)cc3c2cc1Cl [Congener 4-PeCDF, 2,3,4,7,8-pentachlorodibenzofuran] , thanks.
Response: 6.53

Prompt: Need BMR20TCDD Liver Cyp1a2 mRNA of Clc1cc2c(cc1Cl)Oc1cc(Cl)c(Cl)cc1O2 [TCDD, 2,3,7,8-tetrachlorodibenzodioxin, reference compound] , thanks.
Response: 1.73

Prompt: Need BMR20TCDD Liver Cyp1a2 mRNA of Clc1ccc(-c2cc(Cl)c(Cl)c(Cl)c2)cc1Cl [PCB-126, 3,3´,4,4´,5-pentachlorobiphenyl] , thanks.
Response: 120

###

system: Cyp1b1 mRNA in liver; assay: Cyp1b1 gene expression in liver (real-time PCR); format: in vivo, female C57BL/6 mice; details: dose metric Syst adipose; 3 days after single oral dose
endpoint: BMR20TCDD Liver Cyp1b1 mRNA (ng/g lipid)
Give just the numeric value; ng/g lipid need not be written.

Prompt: Request body: readout BMR20TCDD Liver Cyp1b1 mRNA, system Cyp1b1 mRNA in liver, query Clc1cc2c(cc1Cl)Oc1c(cc(Cl)c(Cl)c1Cl)O2 . Return the value.
Response: 19.4

Prompt: Request body: readout BMR20TCDD Liver Cyp1b1 mRNA, system Cyp1b1 mRNA in liver, query Clc1cc2c(cc1Cl)Oc1cc(Cl)c(Cl)cc1O2 [TCDD, 2,3,7,8-tetrachlorodibenzodioxin, reference compound] . Return the value.
Response: 10.3

Prompt: Request body: readout BMR20TCDD Liver Cyp1b1 mRNA, system Cyp1b1 mRNA in liver, query Clc1cc2oc3c(Cl)c(Cl)c(Cl)cc3c2cc1Cl . Return the value.
Response: 461
